Kindly supply the reported viability, T/C values for the records listed here.
System: 885724-159-R-J1-PDC KRAS PDC multicell spheroid viability
protocol details: Anticancer human tumor 885724-159-R-J1-PDC patient-derived pancreatic adenocarcinoma cell line growth inhibition [KRAS2]
measurement context: second compound 0.316 µM; first compound 0.01 µM; stronger effect = lower value
From the text: Multicellular complex tumor spheroid response to RAS pathway inhibitors in combination with a targeted agents in patient-derived cell lines with oncogenic KRAS variants from multiple cancer types A high-throughput screen of multi-cell type tumor spheroids was designed to identify active combinations of targeted small molecules and KRAS pathway inhibitors. […] Compounds. […] If the clinical Cmax for an agent had not been determined, the highest concentration tested was 10 microM. […]
Provide the reading as a plain figure in %.

Entry CC1COCCN1c1cc(-c2ccnn2C)c2ccnc(-c3ccn[nH]3)c2n1 (stereo unspecified) + C=CC(=O)N1CCN(c2nc(OCC3CCCN3C)nc3c2CCN(c2cccc4cccc(C)c24)C3)CC1CC#N , viability, T/C reported as 95

Entry CCN1CCN(Cc2ccc(Nc3ncc(F)c(-c4cc(F)c5nc(C)n(C(C)C)c5c4)n3)nc2)CC1 + C=CC(=O)N1CCN(c2nc(OCC3CCCN3C)nc3c2CCN(c2cccc4cccc(C)c24)C3)CC1CC#N , viability, T/C reported as 88.1

Entry CC(C)n1nc(-c2ccc3oc(N)nc3c2)c2c(N)ncnc21 + CC1OCC2(CCN(c3cnc(Sc4ccnc(N)c4Cl)c(N)n3)CC2)C1N , viability, T/C reported as 58.6

Entry CN(C)C/C=C/C(=O)Nc1cc2c(Nc3ccc(F)c(Cl)c3)ncnc2cc1O[C@H]1CCOC1 + COc1cc2nc(C)nc(NC(C)c3cc(N)cc(C(F)(F)F)c3)c2cc1OC1CCOC1 , viability, T/C reported as 89

Entry CC(C)n1nc(-c2ccc3oc(N)nc3c2)c2c(N)ncnc21 + C=CC(=O)N1CCN(c2nc(OCC3CCCN3C)nc3c2CCN(c2cccc4cccc(C)c24)C3)CC1CC#N , viability, T/C reported as 55.6

Entry CCN1CCN(Cc2ccc(Nc3ncc(F)c(-c4cc(F)c5nc(C)n(C(C)C)c5c4)n3)nc2)CC1 + CC1OCC2(CCN(c3cnc(Sc4ccnc(N)c4Cl)c(N)n3)CC2)C1N , viability, T/C reported as 76.3

----------
Kindly supply the reported viability, T/C values for the records listed here.
System: 885724-159-R-J1-PDC KRAS PDC multicell spheroid viability
protocol details: Anticancer human tumor 885724-159-R-J1-PDC cell line growth inhibition [KRAS2];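 note: spheroids exposed to agents for 7 days before readout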
measurement context: second compound 1 µM; first compound 10 µM; stronger effect = lower value
Provide the reading as a plain figure in %.

Entry COc1cc(Nc2ncc3c(n2)-c2ccc(Cl)cc2C(c2c(F)cccc2OC)=NC3)ccc1C(=O)O + CC1OCC2(CCN(c3cnc(Sc4ccnc(N)c4Cl)c(N)n3)CC2)C1N , viability, T/C reported as 87.7

Entry CC(C)NCC(C(=O)N1CCN(c2ncnc3c2C(C)CC3O)CC1)c1ccc(Cl)cc1 (stereo not drawn) + COc1cc2nc(C)nc(NC(C)c3cc(N)cc(C(F)(F)F)c3)c2cc1OC1CCOC1 , viability, T/C reported as 56.4

Entry CC(C)NCC(C(=O)N1CCN(c2ncnc3c2C(C)CC3O)CC1)c1ccc(Cl)cc1 (stereo not drawn) + CNCc1ccccc1-c1csc(C(C)Nc2nc(C)nc3cc(OC)c(OC)cc23)c1 , viability, T/C reported as 26.3

----------
Tested on: 885724-159-R-J1-PDC KRAS PDC multicell spheroid viability
protocol details: Anticancer human tumor 885724-159-R-J1-PDC cell line growth inhibition [KRAS2];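 note: spheroids exposed to agents for 7 days before readout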
measurement context: second compound 10 µM; first compound 0.1 µM; stronger effect = lower value
Rule: viability, T/C below 80% gives true (1). Equal to or above 80% gives false (0).

Incoming: viability, T/C strictly < 80% for this compound? CN(C)C/C=C/C(=O)Nc1cc2c(Nc3ccc(F)c(Cl)c3)ncnc2cc1O[C@H]1CCOC1 + CNCc1ccccc1-c1csc(C(C)Nc2nc(C)nc3cc(OC)c(OC)cc23)c1
Outgoing: true (1)

Incoming: viability, T/C strictly < 80% for this compound? COc1cc2nccc(Oc3ccc(NC(=O)C4(C(=O)Nc5ccc(F)cc5)CC4)cc3)c2cc1OC + COc1cc2nc(C)nc(NC(C)c3cc(N)cc(C(F)(F)F)c3)c2cc1OC1CCOC1
Outgoing: true (1)

Incoming: viability, T/C strictly < 80% for this compound? O=C(c1cc(Cc2n[nH]c(=O)c3ccccc23)ccc1F)N1CCN(C(=O)C2CC2)CC1 + COc1cc2nc(C)nc(NC(C)c3cc(N)cc(C(F)(F)F)c3)c2cc1OC1CCOC1
Outgoing: false (0)

Incoming: viability, T/C strictly < 80% for this compound? CC(=O)OC12COC1CC(O)C1(C)C(=O)C(O)C3=C(C)C(OC(=O)C(O)C(NC(=O)OC(C)(C)C)c4ccccc4)CC(O)(C(OC(=O)c4ccccc4)C21)C3(C)C (stereo not given) + CNCc1ccccc1-c1csc(C(C)Nc2nc(C)nc3cc(OC)c(OC)cc23)c1
Outgoing: true (1)

Incoming: viability, T/C strictly < 80% for this compound? CCN1CCN(Cc2ccc(Nc3ncc(F)c(-c4cc(F)c5nc(C)n(C(C)C)c5c4)n3)nc2)CC1 + C=CC(=O)N1CCN(c2nc(=O)n(-c3c(C)ccnc3C(C)C)c3nc(-c4c(O)cccc4F)c(F)cc23)C(C)C1
Outgoing: false (0)

Incoming: viability, T/C strictly < 80% for this compound? CC1OCC2(CCN(c3cnc(Sc4ccnc(N)c4Cl)c(N)n3)CC2)C1N (stereo not given) + COc1cc2nc(C)nc(NC(C)c3cc(N)cc(C(F)(F)F)c3)c2cc1OC1CCOC1
Outgoing: true (1)

Incoming: viability, T/C strictly < 80% for this compound? O=C(c1cc(Cc2n[nH]c(=O)c3ccccc23)ccc1F)N1CCN(C(=O)C2CC2)CC1 + C=CC(=O)N1CCN(c2nc(=O)n(-c3c(C)ccnc3C(C)C)c3nc(-c4c(O)cccc4F)c(F)cc23)C(C)C1
Outgoing: false (0)

Incoming: viability, T/C strictly < 80% for this compound? CC(C)NCC(C(=O)N1CCN(c2ncnc3c2C(C)CC3O)CC1)c1ccc(Cl)cc1 (stereo not given) + CC1OCC2(CCN(c3cnc(Sc4ccnc(N)c4Cl)c(N)n3)CC2)C1N
Outgoing: true (1)

Incoming: viability, T/C strictly < 80% for this compound? CN(C)C/C=C/C(=O)Nc1cc2c(Nc3ccc(F)c(Cl)c3)ncnc2cc1O[C@H]1CCOC1 + C=CC(=O)N1CCN(c2nc(=O)n(-c3c(C)ccnc3C(C)C)c3nc(-c4c(O)cccc4F)c(F)cc23)C(C)C1
Outgoing: true (1)

----------
Tested on: 885724-159-R-J1-PDC KRAS PDC multicell spheroid viability
protocol details: Anticancer human tumor 885724-159-R-J1-PDC cell line growth inhibition [KRAS2];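 note: spheroids exposed to agents for 7 days before readout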
measurement context: curve of first compound; second compound 1 µM
pIC50: −log10 of the molar value.
The threshold is inclusive: pIC50 of exactly 6 counts as Condition met; values below receive Condition not met.

Incoming: Threshold query (pIC50 >= 6) on CCNC(=O)CC1N=C(c2ccc(Cl)cc2)c2cc(OC)ccc2-n2c(C)nnc21 (stereo not given) + CC1OCC2(CCN(c3cnc(Sc4ccnc(N)c4Cl)c(N)n3)CC2)C1N
Outgoing: Condition met

Incoming: Threshold query (pIC50 >= 6) on COc1cc2nccc(Oc3ccc(NC(=O)C4(C(=O)Nc5ccc(F)cc5)CC4)cc3)c2cc1OC + C=CC(=O)N1CCN(c2nc(=O)n(-c3c(C)ccnc3C(C)C)c3nc(-c4c(O)cccc4F)c(F)cc23)C(C)C1
Outgoing: Condition not met

Incoming: Threshold query (pIC50 >= 6) on CC1(C)CCC(CN2CCN(c3ccc(C(=O)NS(=O)(=O)c4ccc(NCC5CCOCC5)c([N+](=O)[O-])c4)c(Oc4cnc5[nH]ccc5c4)c3)CC2)=C(c2ccc(Cl)cc2)C1 + C=CC(=O)N1CCN(c2nc(OCC3CCCN3C)nc3c2CCN(c2cccc4cccc(C)c24)C3)CC1CC#N
Outgoing: Condition not met

Incoming: Threshold query (pIC50 >= 6) on COc1cc(Nc2ncc3c(n2)-c2ccc(Cl)cc2C(c2c(F)cccc2OC)=NC3)ccc1C(=O)O + CNCc1ccccc1-c1csc(C(C)Nc2nc(C)nc3cc(OC)c(OC)cc23)c1
Outgoing: Condition not met

Incoming: Threshold query (pIC50 >= 6) on CCN1CCN(Cc2ccc(Nc3ncc(F)c(-c4cc(F)c5nc(C)n(C(C)C)c5c4)n3)nc2)CC1 + CC1OCC2(CCN(c3cnc(Sc4ccnc(N)c4Cl)c(N)n3)CC2)C1N
Outgoing: Condition not met

Incoming: Threshold query (pIC50 >= 6) on CC(C)NCC(C(=O)N1CCN(c2ncnc3c2C(C)CC3O)CC1)c1ccc(Cl)cc1 (stereo not given) + CC1OCC2(CCN(c3cnc(Sc4ccnc(N)c4Cl)c(N)n3)CC2)C1N
Outgoing: Condition not met

Incoming: Threshold query (pIC50 >= 6) on COc1cc2nccc(Oc3ccc(NC(=O)C4(C(=O)Nc5ccc(F)cc5)CC4)cc3)c2cc1OC + C=CC(=O)N1CCN(c2nc(OCC3CCCN3C)nc3c2CCN(c2cccc4cccc(C)c24)C3)CC1CC#N
Outgoing: Condition not met

Incoming: Threshold query (pIC50 >= 6) on CC1(C)CCC(CN2CCN(c3ccc(C(=O)NS(=O)(=O)c4ccc(NCC5CCOCC5)c([N+](=O)[O-])c4)c(Oc4cnc5[nH]ccc5c4)c3)CC2)=C(c2ccc(Cl)cc2)C1 + CC1OCC2(CCN(c3cnc(Sc4ccnc(N)c4Cl)c(N)n3)CC2)C1N
Outgoing: Condition not met

Incoming: Threshold query (pIC50 >= 6) on CC(C)n1nc(-c2ccc3oc(N)nc3c2)c2c(N)ncnc21 + COc1cc2nc(C)nc(NC(C)c3cc(N)cc(C(F)(F)F)c3)c2cc1OC1CCOC1
Outgoing: Condition met
